The following molecules are shown together with reported normalized growth values.
- TEST_NAME: chemical genetic growth profiling, strain panel (AID 1159580);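 further: tested at 20 µM; growth read once vehicle control cultures reached saturation at 30 °C; 1 = growth at the plate median or of vehicle wells; lower values mean less growth of the strain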
- REPORTED_CONDITIONS: S. cerevisiae deletion strains, growth OD, locus YOL078W, strain AVO1, active compounds read low
In all, about 5,500 compounds went through this assay and about 2,000 (36%) were called active. Roughly 18% stayed inconclusive and do not appear here. Some of the results follow.

MOLECULE | READING
CC(=O)c1sc(SCCS(=O)(=O)c2ccc(C)cc2)c2c1CC(C)(C)CC2=O | 0.972 (inactive)
Cc1nn(Cc2ccc(C(=O)Sc3ccc(C(F)(F)F)cn3)o2)c(C)c1Br | 0.961 (inactive)

Fill in the blank: the reported normalized growth of `CCCc1c(C(=O)NC2Cc3ccccc3C2)cnn1-c1ccccc1` is ____. 0.985 (inactive)

Consider the molecule shown here: `O=C(NC(=S)Nc1cccc(C(F)(F)F)c1)c1ccc2nonc2c1` What is its recorded normalized growth? 0.953 (inactive)

Taken from PubChem BioAssay AID1159580.
